# Tested On: monkey NPR1 (Macaca fascicularis, UniProt A0A7N9DBT9)
# Sequence (A0A7N9DBT9 entry or part of it): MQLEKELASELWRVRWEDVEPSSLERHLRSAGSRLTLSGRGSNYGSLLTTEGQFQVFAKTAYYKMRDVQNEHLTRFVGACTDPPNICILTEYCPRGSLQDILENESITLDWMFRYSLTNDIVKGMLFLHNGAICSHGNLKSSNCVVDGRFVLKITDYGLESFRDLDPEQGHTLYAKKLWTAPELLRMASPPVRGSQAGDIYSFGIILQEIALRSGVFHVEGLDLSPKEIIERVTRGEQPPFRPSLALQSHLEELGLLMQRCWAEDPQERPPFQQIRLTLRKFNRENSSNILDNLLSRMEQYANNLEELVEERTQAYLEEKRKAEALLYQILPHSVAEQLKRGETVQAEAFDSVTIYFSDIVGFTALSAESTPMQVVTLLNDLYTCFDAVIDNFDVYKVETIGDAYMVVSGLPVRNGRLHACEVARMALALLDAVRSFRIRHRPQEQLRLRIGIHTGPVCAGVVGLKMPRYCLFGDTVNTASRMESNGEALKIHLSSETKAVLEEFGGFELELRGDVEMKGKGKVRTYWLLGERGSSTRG
# Assay Method Text: Cellular cGMP production assay, monkey NPR1 expressing CHO-K1 cells (CisBio HTRF)
# Type: cell-based
# Condition Notes: maximum cGMP production as percentage of the maximum cGMP produced with ANP, monkey NPR1 CHO-K1 cells
A collection of compounds and their measured Monkey NPR1 Amax (% of ANP)

Observe how each entry below is paired with its result.
1. CC[C@@H](Nc1nc2c(c(N[C@@H](CN3C4CCCC3CCC4)c3cnn(C)c3)n1)C[C@H](c1cccc(F)c1)CC2)[C@H]1CC[C@H](C(=O)O)CC1 [Compound 15] ... 109.175 % of ANP
2. CC[C@@H](Nc1nc2c(c(N[C@@H](CN3CCC[C@@H](C)C3)c3cnn(C)c3)n1)C[C@H](c1ccccc1)CC2)[C@H]1CC[C@H](C(=O)O)CC1 [Compound 84] ... 102.883 % of ANP
3. CC[C@H]([C@H]1CC[C@H](C(=O)O)CC1)N(C)c1nc2c(c(N[C@@H](CN3CCC[C@H](C)C3)c3cnn(C)c3)n1)C[C@H](c1ccccc1)CC2 [Compound 40] ... 105.150 % of ANP
4. CC[C@@H](Nc1nc2c(c(N[C@@H](CN3C4CCCC3CC4)c3csc(C)n3)n1)C[C@H](c1cccc(F)c1)CC2)[C@H]1CC[C@H](C(=O)O)CC1 [Compound 127] ... 102.089 % of ANP
5. CC[C@H]([C@H]1CC[C@H](C(=O)O)CC1)N(C)c1nc2c(c(N[C@@H](CN3CCC[C@H](C)C3)c3cnn(C)c3)n1)CN(c1cccc(F)c1)CC2 [Compound 124] ... 101.428 % of ANP

Item CC[C@H]([C@H]1CC[C@H](C(=O)O)CC1)N(C)c1nc2c(c(N[C@@H](CN3CCC[C@H](C)C3)c3cnn(C)c3)n1)CN(c1cccc(Cl)c1)CC2 [Compound 170] : provide Monkey NPR1 Amax (% of ANP)
124.109 % of ANP

Item CC[C@H]([C@H]1CC[C@H](C(=O)O)CC1)N(C)c1nc2c(c(N[C@@H](CN3CCCC[C@@H]3CO)c3cnn(CC)c3)n1)C[C@H](c1cccc(F)c1)CC2 [Compound 104] : provide Monkey NPR1 Amax (% of ANP)
109.908 % of ANP

Item CC[C@H]([C@H]1CC[C@H](C(=O)O)CC1)N(C)c1nc2c(c(N[C@@H](CN3CCCC[C@H]3CO)c3cnn(CC)c3)n1)C[C@H](c1cccc(F)c1)CC2 [Compound 135] : provide Monkey NPR1 Amax (% of ANP)
99.242 % of ANP
